# Assay Protocol: Human HepG2 cell viability assay in 384 well format
# Type: toxicity, cell-based
# Design: dose 125 nL, time 70.5 hour; concentration not given beside the values
# Test Parameters: HepG2 cells, read-out: Inhibition
// reported cytotoxicity at 70.5 h per item
Measured Parameter: cytotoxicity at 70.5 h (%)

[[record]]
compound = "COc1cc(CNCCn2cc(C)cn2)c2c(c1)CC(C)O2 (centres undefined)"
measured_parameter = "cytotoxicity at 70.5 h"
result = -8.44

[[record]]
compound = "CSc1ccc(OCCN2CCNC(=O)C2C)cc1 (centres undefined)"
measured_parameter = "cytotoxicity at 70.5 h"
result = -15.5

[[record]]
compound = "Cn1c(C(F)(F)F)nn(CCNC(=O)c2cnc3ccccc3n2)c1=O"
measured_parameter = "cytotoxicity at 70.5 h"
result = -2.86

[[record]]
compound = "O=C(NCCC1CN(Cc2c[nH]cn2)CCO1)Nc1ccccc1 (centres undefined)"
measured_parameter = "cytotoxicity at 70.5 h"
result = -8.29

[[record]]
compound = "Cc1cc(CN2CCc3nc(C)n(C)c(=O)c3CC2)[nH]n1"
measured_parameter = "cytotoxicity at 70.5 h"
result = -5.95

[[record]]
compound = "O=S(=O)(c1cncc(F)c1)N1CCSC2(CCCCC2)C1"
measured_parameter = "cytotoxicity at 70.5 h"
result = -10.2

[[record]]
compound = "O=C(C1CCCO1)N1CCc2onc(-c3ccc(Cl)cc3)c2C1 (centres undefined)"
measured_parameter = "cytotoxicity at 70.5 h"
result = 16.8

[[record]]
compound = "Cn1ccnc1CN1CCO[C@H]2C(CNC(=O)c3ccco3)CC[C@@H]21 (some centres undefined)"
measured_parameter = "cytotoxicity at 70.5 h"
result = -0.67

[[record]]
compound = "COc1ccc(C)cc1C(C)NCc1cnnn1C (centres undefined)"
measured_parameter = "cytotoxicity at 70.5 h"
result = -1.22

[[record]]
compound = "O=C(C1CCCN(Cc2cccnc2)C1)N1CCc2sccc2C1 (centres undefined)"
measured_parameter = "cytotoxicity at 70.5 h"
result = -5.24

[[record]]
compound = "c1cc(-c2cn[nH]c2)ncc1CN1CCCCC1"
measured_parameter = "cytotoxicity at 70.5 h"
result = -6.79

[[record]]
compound = "O=C(CCn1ccc2ccc(F)cc21)/N=c1\\[nH]nc(C2CCCO2)s1 (centres undefined)"
measured_parameter = "cytotoxicity at 70.5 h"
result = -20.2

[[record]]
compound = "CN(Cc1ccsc1)C(=O)CN1CCCC(Cn2cncn2)C1 (centres undefined)"
measured_parameter = "cytotoxicity at 70.5 h"
result = -5.89

[[record]]
compound = "CC(=O)Nc1nc(C2CCN(C(=O)c3ccncc3)CC2)cs1"
measured_parameter = "cytotoxicity at 70.5 h"
result = 24.9

[[record]]
compound = "Cc1nc(C)n(CC2CCCN(CCc3ccncc3)C2)n1 (centres undefined)"
measured_parameter = "cytotoxicity at 70.5 h"
result = -2.11

[[record]]
compound = "CC(C)Cc1noc(CN2CCC(C(=O)NCC3CCCO3)CC2)n1 (centres undefined)"
measured_parameter = "cytotoxicity at 70.5 h"
result = 10.6

[[record]]
compound = "CSCC(=O)NCc1cc(Br)ccc1OC(F)F"
measured_parameter = "cytotoxicity at 70.5 h"
result = -5.17

[[record]]
compound = "Cc1n[nH]c(C)c1-c1nccnc1CC1CCN(C(C)C)CC1"
measured_parameter = "cytotoxicity at 70.5 h"
result = 13.4

[[record]]
compound = "Cc1c(C(C)N)cnn1-c1cccc2ccccc12 (centres undefined)"
measured_parameter = "cytotoxicity at 70.5 h"
result = -5.48

[[record]]
compound = "O=C1CC(c2ccncc2)C2(CCN(Cc3cccnc3)CC2)N1 (centres undefined)"
measured_parameter = "cytotoxicity at 70.5 h"
result = -6.24

[[record]]
compound = "CN(C)S(=O)(=O)N1CCC(Oc2cccnn2)CC1"
measured_parameter = "cytotoxicity at 70.5 h"
result = 0.601

[[record]]
compound = "O=C(c1scc2c1OCCO2)N1CCOC(CCc2ccccc2)C1 (centres undefined)"
measured_parameter = "cytotoxicity at 70.5 h"
result = 1.27

[[record]]
compound = "CC(C)(C)OC(=O)NCC1CCCCN1Cc1ccccn1 (centres undefined)"
measured_parameter = "cytotoxicity at 70.5 h"
result = 1.05

[[record]]
compound = "FC(F)(F)CCc1ccnc(NCc2csc(N3CCOCC3)n2)n1"
measured_parameter = "cytotoxicity at 70.5 h"
result = -10.4

[[record]]
compound = "Cc1cc(C(=O)Nc2ccc(OCC3CCOCC3)cc2)[nH]n1"
measured_parameter = "cytotoxicity at 70.5 h"
result = 1.95

[[record]]
compound = "CNc1ccc(C2CN(c3cc(C)nc(N)n3)CCO2)nc1 (centres undefined)"
measured_parameter = "cytotoxicity at 70.5 h"
result = -2.26

[[record]]
compound = "Cn1cc(CN2C[C@@H](F)[C@@H](OCc3nc4cnccc4[nH]3)C2)cn1"
measured_parameter = "cytotoxicity at 70.5 h"
result = -1.11

[[record]]
compound = "CC(C)(C)OC(=O)N1CCN(c2nnc(Br)s2)CC1"
measured_parameter = "cytotoxicity at 70.5 h"
result = 18.7

[[record]]
compound = "CCS(=O)(=O)N1CCc2c(CN3CCOCC3)cncc2C1"
measured_parameter = "cytotoxicity at 70.5 h"
result = -4.84

[[record]]
compound = "O=C1CC(c2ccncc2)C2(CCN(Cc3nccs3)CC2)N1 (centres undefined)"
measured_parameter = "cytotoxicity at 70.5 h"
result = -7.32

[[record]]
compound = "O=C(c1cccs1)N1CCC2(CC1)CN(c1cncnc1)C(=O)CO2"
measured_parameter = "cytotoxicity at 70.5 h"
result = -12.3

[[record]]
compound = "CCCOc1ccc(C(=O)N[C@@H]2CCNC[C@H]2O)cc1Cl"
measured_parameter = "cytotoxicity at 70.5 h"
result = 2.76

[[record]]
compound = "Cc1nc[nH]c1CN(C)CC1CCCN(CCc2ccc(Cl)cc2)C1 (centres undefined)"
measured_parameter = "cytotoxicity at 70.5 h"
result = 20.5

[[record]]
compound = "Cc1ccc(NC(=O)N(CCO)Cc2ccsc2)cc1"
measured_parameter = "cytotoxicity at 70.5 h"
result = -0.584

[[record]]
compound = "CC(c1ccc(S(C)(=O)=O)cc1)N(C)C(=O)c1ccccc1I (centres undefined)"
measured_parameter = "cytotoxicity at 70.5 h"
result = -4.13

[[record]]
compound = "Cc1ccnn1CCNC(=O)c1cnc(N(C)C)nc1"
measured_parameter = "cytotoxicity at 70.5 h"
result = -4.92

[[record]]
compound = "FC(F)Oc1ccccc1CN1CCCC(c2nccn2CC2CC2)C1 (centres undefined)"
measured_parameter = "cytotoxicity at 70.5 h"
result = -1.02

[[record]]
compound = "Cc1cccnc1CN1CCN(c2noc(-c3ccccc3)n2)CC1"
measured_parameter = "cytotoxicity at 70.5 h"
result = 7.94

[[record]]
compound = "COC(C)c1noc(CN(C)c2ncccn2)n1 (centres undefined)"
measured_parameter = "cytotoxicity at 70.5 h"
result = -1.92

[[record]]
compound = "CN(C)C1CCCN(C(=O)c2cccc(-c3ncc[nH]3)c2)CC1 (centres undefined)"
measured_parameter = "cytotoxicity at 70.5 h"
result = -1.63

[[record]]
compound = "CNc1cncc(C2CCCN2Cc2c[nH]cn2)n1 (centres undefined)"
measured_parameter = "cytotoxicity at 70.5 h"
result = -18.1

[[record]]
compound = "Cc1ccc(-c2cc(CN3CCOC(Cn4cncn4)C3)on2)cc1 (centres undefined)"
measured_parameter = "cytotoxicity at 70.5 h"
result = 47.8

[[record]]
compound = "CN1CCC/C1=N\\S(=O)(=O)c1ccc(NC(=O)c2ccc(Cl)cc2)cc1"
measured_parameter = "cytotoxicity at 70.5 h"
result = 1.42

[[record]]
compound = "CCc1nc(C2CCCN2Cc2ncc(C)c(OC)c2C)no1 (centres undefined)"
measured_parameter = "cytotoxicity at 70.5 h"
result = -5.08

[[record]]
compound = "CC(=O)c1cc(C(=O)NC2(c3ccc(Br)cc3)CC2)n(C)c1"
measured_parameter = "cytotoxicity at 70.5 h"
result = -3.42

[[record]]
compound = "Cc1ncsc1CN(Cc1ccccc1)Cc1ncc[nH]1"
measured_parameter = "cytotoxicity at 70.5 h"
result = 17.5

[[record]]
compound = "CCCNCc1ncc(C)c(OC)c1C"
measured_parameter = "cytotoxicity at 70.5 h"
result = -6.98

[[record]]
compound = "CCOc1ccc(CNC2CCCN(c3cccnn3)C2)cc1OC (centres undefined)"
measured_parameter = "cytotoxicity at 70.5 h"
result = 4.96

[[record]]
compound = "C=C(C)COc1cccc(CNCCc2c[nH]cn2)c1"
measured_parameter = "cytotoxicity at 70.5 h"
result = -6.28

